Reference source: patent EP4603105A1

# Test system: human lung cancer strain NCI-H441
# test.description: NCI-H441 cell proliferation inhibitory activity (CellTiter-Glo, 4 days)
# Format: cell-based
# test.conditions: NCI-H441 cells, 4 days, read-out: NCl-H441 IC50
pIC50: −log10 of the molar value.
parameter: pIC50

| chemical.string | parameter | quantitative.result |
| --- | --- | --- |
| CCC(CC)[C@H]1C(=O)N(C)[C@H](C(=O)N(C)C)CC(=O)N(C)[C@@H](COC)C(=O)N[C@@H]([C@@H](C)CC)C(=O)N(C2CC2)CC(=O)N(C)[C@H]2C/C=C\CCN(C2=O)[C@@H](CC2CCC(F)(F)CC2)C(=O)N(C)CC(=O)N[C@@H](CCc2ccc(Cl)c(Cl)c2)C(=O)N2C[C@H](OC(C)C)C[C@H]2C(=O)NC2(CC(C)(C)C2)C(=O)N1C | pIC50 | 6.85 |
| CCC[C@H]1C(=O)N[C@@H]([C@@H](C)CC)C(=O)N(C2CC2)CC(=O)N(C)[C@H]2C/C=C\CCN(C2=O)[C@@H](Cc2ccc(C)cc2)C(=O)N(C)CC(=O)N[C@@H](CCc2cc(F)c(C(F)(F)F)c(F)c2)C(=O)N2C[C@H](OC(C)C)C[C@H]2C(=O)NC2(CC(C)(C)C2)C(=O)N(C)[C@@H](C2CCCC2)C(=O)N(C)[C@H](C(=O)N(C)C)CC(=O)N1C | pIC50 | 8.05 |
| CCC[C@H]1C(=O)N[C@@H]([C@@H](C)CC)C(=O)N(C2CC2)CC(=O)N(C)[C@H]2C/C=C\CCN(C2=O)[C@@H](Cc2ccc(C)cc2)C(=O)N(C)CC(=O)N[C@@H](CCc2ccc(C(F)(F)F)c(OC)c2)C(=O)N2C[C@H](OCC)C[C@H]2C(=O)OC2(CCC2)C(=O)N(C)[C@@H](C2CCCC2)C(=O)N(C)[C@H](C(=O)N(C)C)CC(=O)N1C | pIC50 | 7.95 |

----------
# system.tested: GDP-bound KRAS wild-type protein (Homo sapiens, UniProt P01116)
# Sequence (P01116 1-188 isoform P01116-2): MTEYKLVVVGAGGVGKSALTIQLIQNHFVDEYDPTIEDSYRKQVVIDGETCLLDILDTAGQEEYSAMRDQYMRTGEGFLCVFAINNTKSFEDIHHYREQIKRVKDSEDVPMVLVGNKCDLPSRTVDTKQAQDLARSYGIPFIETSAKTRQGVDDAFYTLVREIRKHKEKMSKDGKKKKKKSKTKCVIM
# test.description: Binding to KRAS by surface plasmon resonance (SPR), dissociation constant KD
# test.conditions: 1:1 binding model
Where a SMILES comes first, the peptide text is derived from it. Bridges are numbered along the chain shown (N, C = ends). [ ]: non-standard residue; d: D form. The star is where a group is joined. hPhe(3-Cl-4-CF3) = N[C@@H](CCc1ccc(C(F)(F)F)c(Cl)c1)C(=O)O; NPrPhe(4-Me) = CCCN[C@@H](Cc1ccc(C)cc1)C(=O)O; NMeGly(cPent) = CN[C@H](C(=O)O)C1CCCC1; NMeD = CN[C@@H](CC(=O)O)C(=O)O; NMeL = CN[C@@H](CC(C)C)C(=O)O; Pip = O=C(O)[C@@H]1CCCCN1; Morpholide = C1CN(*)CCO1; Ac5c = NC1(C(=O)O)CCCC1; Aze = O=C(O)[C@@H]1CCN1; Sar = CNCC(=O)O
parameter: Kd (pM)

| molecule | parameter | quantitative.result |
| --- | --- | --- |
| CCCN1C(=O)[C@@H]2CCN2C(=O)[C@@H]2CCCCN2C(=O)[C@H]([C@@H](C)CC)NC(=O)[C@H](CC(C)C)N(C)C(=O)C[C@@H](C(=O)N2CCOCC2)N(C)C(=O)[C@H](C2CCCC2)N(C)C(=O)C2(CCCC2)NC(=O)[C@@H]2CCCN2C(=O)[C@H](CCc2ccc(C(F)(F)F)c(Cl)c2)NC(=O)CN(C)C(=O)[C@@H]1Cc1ccc(C)cc1 [PP0070] ([NMeL]I[Pip][Aze][NPrPhe(4-Me)][Sar][hPhe(3-Cl-4-CF3)]P[Ac5c][NMeGly(cPent)][NMeD]-Morpholide; lactam N-11) | Kd | 160 |
| CCC[C@H]1C(=O)N[C@@H]([C@@H](C)CC)C(=O)N(C)CC(=O)N(C)[C@H]2C/C=C\CCN(C2=O)[C@@H](Cc2ccc(C)cc2)C(=O)N(C)CC(=O)N[C@@H](CCc2ccc(C(F)(F)F)c(OC)c2)C(=O)N2CC3(CC3)C[C@H]2C(=O)NC2(CC(C)(C)C2)C(=O)N(C)[C@@H](CC(C)C)C(=O)N(C)[C@H](C(=O)N(C)C)CC(=O)N1C [PP3013] | Kd | 530 |
| CCO[C@H](C)[C@@H]1NC(=O)[C@H](CC(C)C)N(C)C(=O)C[C@@H](C(=O)N(C)CC)N(C)C(=O)[C@H](C2CCCC2)N(C)C(=O)C2(CC(C)(C)C2)NC(=O)[C@@H]2C[C@H](C)CN2C(=O)[C@H](CCc2ccc(C(F)(F)F)c(OC)c2)NC(=O)CN(C)C(=O)[C@H](Cc2ccc(C)cc2)N2CC/C=C\C[C@@H](C2=O)N(C)C(=O)CN(C)C1=O [PP2413] | Kd | 250 |
